- Measurement Protocol: AUC ( 0 to infinity) in Sprague-Dawley rat at 30 mg/kg, po measured upto 24 hrs by LC-MS/MS analysis
- Type: ADME, organism-based
- Parameters: dose 30 mg/kg, time infinity, route oral
- Test Settings: in vivo
Measured Quantity: AUC(0-inf)

Requested field: AUC(0-inf). Item: Cc1ccc(-c2c(C)noc2C)cc1Nc1ccc(C#N)c(Cl)c1
4060 ng·h/mL

###

- Measurement Protocol: Tmax in Sprague-Dawley rat at 30 mg/kg, po measured upto 24 hrs by LC-MS/MS analysis
- Format: ADME, organism-based
- Test Settings: in vivo
Measured Quantity: Tmax (min)
Express your answer in min, writing the number without its unit.

Quick one: Tmax of Cc1ccc(-c2c(C)noc2C)cc1Nc1ccc(C#N)c(Cl)c1 ?
30

###

- System: L02
- Measurement Protocol: Antiproliferative activity against human L02 cells assessed as reduction in cell viability incubated for 6 days by CCK8 assay
- Assay type: cell-based
- Test Settings: L02, 144 h
Readings of pIC50 for the listed compounds
Remember the convention: pIC50 equals -log10 of concentration in molar.

• Cc1ccc(-c2c(C)noc2C)cc1Nc1ccc(C#N)c(Cl)c1 = 4.95
• CCN(c1ccc(C#N)c(Cl)c1)c1cc(-c2c[nH]nc2C)ccc1C = 5.24
• CCN(c1ccc(C#N)c(Cl)c1)c1cc(-c2cccnc2)ccc1C = 4.90
• CCN(c1ccc(C#N)c(Cl)c1)c1cc(-c2c(C)noc2C)ccc1C = 5.06

What value of measured pIC50 is listed for CCN(c1cccc(-n2ccnc2)c1)c1ccc(C#N)c(Cl)c1 ?
4.63

Try the compound CCN(c1ccc(C#N)c(Cl)c1)c1cc(-n2ccnc2)ccc1C
4.82

Next entry: CCN(c1ccc(C#N)c(Cl)c1)c1cc(-c2ccncc2)ccc1C
5.76

Also, N#Cc1ccc(N2CCCc3c(-c4cccnc4)cccc32)cc1C(F)(F)F please.
4.98

Also CNC(=O)c1ccc(N2C(=S)N(c3ccc(C#N)c(C(F)(F)F)c3)C(=O)C2(C)C)cc1F [ENZALUTAMIDE] ?
4.77

What do you have for CCN(c1ccc(C#N)c(Cl)c1)c1cc(-c2ccnn2C)ccc1C ?
5.21

###

- Test system: CWR22R
- Measurement Protocol: Antiproliferative activity against human 22Rv1 cells assessed as reduction in cell viability incubated for 6 days by CCK8 assay
- Assay type: functional, cell-based
- Test Settings: 22Rv1, 144 h
Entries and their IC50

Recorded IC50 for CCN(c1ccc(C#N)c(Cl)c1)c1cc(-c2cncnc2)ccc1C , please?
> 30 µM

Same question, CCN(c1ccc(C#N)c(Cl)c1)c1cc(-c2ccccc2)ccc1C this time
> 30 µM

Follow-up item: CCN(c1cccc(-n2ccnc2)c1)c1ccc(C#N)c(Cl)c1
> 30 µM

Data credit: ChEMBL document CHEMBL4346686
